system: Echinochloa crus-galli; assay: Pre-emergence herbicidal efficacy, ECHCG; assay type: in vivo; conditions: Table B1, application rate 320 g/ha, scored visually after about 3 weeks vs untreated controls
PROPERTY_LABEL: Herbicidal efficacy against ECHCG (%)

COMPOUND | PROPERTY_LABEL | NUMBER
Cc1ccc2c(c1)[C@H](Nc1nc3n(n1)CCN(S(=O)(=O)C(C)C)C3)CCC2 | Herbicidal efficacy against ECHCG | 100
Cc1ccc2c(c1)[C@H](Nc1nc3n(n1)CCN(C(=O)C1CC1)C3)CCC2 | Herbicidal efficacy against ECHCG | 90
Cc1ccc2c(c1)C(Nc1nc3n(n1)CCCS3(=O)=O)CC2 (stereo not drawn) | Herbicidal efficacy against ECHCG | 80
Fc1cccc2c1CCC[C@H]2Nc1nc2n(n1)CCCCS2 | Herbicidal efficacy against ECHCG | 100
Cc1ccc2c(c1)C(Nc1nc3n(n1)CCN(C(=O)c1ccc(Cl)cc1)C3)C(C)C2 (stereo not drawn) | Herbicidal efficacy against ECHCG | 90
Cc1ccc2c(c1)C(Nc1nc3n(n1)CCC(=O)N3C)CCC2 (stereo not drawn) | Herbicidal efficacy against ECHCG | 100
Cc1ccc2c(c1)[C@H](Nc1nc3n(n1)CCCCS3)CCC2 | Herbicidal efficacy against ECHCG | 100
Cc1ccc2c(c1)C(Nc1nc3n(n1)CCCCS3)C(C)C2 (stereo not drawn) | Herbicidal efficacy against ECHCG | 100
Cc1ccc2c(c1)[C@H](Nc1nc3n(n1)CCCS3)[C@@H](C)C2 | Herbicidal efficacy against ECHCG | 100
Cc1ccc2c(c1)C(Nc1nc3n(n1)CCCC[S+]3[O-])CCC2 (stereo not drawn) | Herbicidal efficacy against ECHCG | 100
Cc1ccc2c(c1)C(Nc1nc3n(n1)CCCCS3(=O)=O)C(C)C2 (stereo not drawn) | Herbicidal efficacy against ECHCG | 100
Cc1ccc2c(c1)C(Nc1nc3n(n1)CCN(C(=O)C1CC1)C3)C(C)C2 (stereo not drawn) | Herbicidal efficacy against ECHCG | 100
c1ccc2c(c1)CCC[C@H]2Nc1nc2n(n1)CCCCS2 | Herbicidal efficacy against ECHCG | 100
Cc1ccc2c(c1)C(Nc1nc3n(n1)CCCCS3)CCC2 (stereo not drawn) | Herbicidal efficacy against ECHCG | 100
Cc1ccc2c(c1)[C@H](Nc1nc3n(n1)CCN(S(=O)(=O)C(C)C)C3)CC2 | Herbicidal efficacy against ECHCG | 90
Cc1ccc2c(c1)[C@H](Nc1nc3n(n1)CCCS3)CC2 | Herbicidal efficacy against ECHCG | 100
Cc1ccc2c(c1)[C@H](Nc1nc3n(n1)CCCCS3)CCO2 | Herbicidal efficacy against ECHCG | 100
Cc1ccc2c(c1)C(Nc1nc3n(n1)CCCC[S+]3[O-])C(C)C2 (stereo not drawn) | Herbicidal efficacy against ECHCG | 100

###

Below is a list of entries, each paired with its recorded Herbicidal efficacy against ECHCG value.
test system: Echinochloa crus-galli; assay: Pre-emergence herbicidal efficacy, ECHCG; format: in vivo; conditions: Table B1, application rate 320 g/ha, scored visually after about 3 weeks vs untreated controls

MOLECULE | Herbicidal efficacy against ECHCG [%]
CC(=O)N1CCn2nc(NC3c4cc(C)ccc4CC3C)nc2C1 (stereo not drawn) | 100
CC(=O)N1CCn2nc(N[C@@H]3CCc4ccc(C)cc43)nc2C1 | 100
Cc1ccc2c(c1)[C@H](Nc1nc3n(n1)CCCS3)CCO2 | 100
Cc1ccc2c(c1)C(Nc1nc3n(n1)CCC(=O)N3CC1CC1)CCC2 (stereo not drawn) | 80
Cc1ccc2c(c1)[C@H](Nc1nc3n(n1)CCN(S(=O)(=O)C(C)C)C3)[C@@H](C)C2 | 100
Cc1ccc2c(c1)C(Nc1nc3n(n1)CCN(C(C)C)C3)C(C)C2 (stereo not drawn) | 100
Cc1ccc2c(c1)[C@H](Nc1nc3n(n1)CCCC[S+]3[O-])CCO2 (stereo partly drawn) | 100
Cc1ccc2c(c1)C(Nc1nc3n(n1)CCCCS3(=O)=O)CC2 (stereo not drawn) | 100
Cc1ccc2c(c1)C(Nc1nc3n(n1)CCC[S+]3[O-])C(C)C2 (stereo not drawn) | 90

Origin of values: patent US20200331904A1
